src = ChEMBL document CHEMBL3882729

Molecular target: Ephrin type-A receptor 2 (Homo sapiens)
Sequence (P29317 whole entry, the tested form may be a part): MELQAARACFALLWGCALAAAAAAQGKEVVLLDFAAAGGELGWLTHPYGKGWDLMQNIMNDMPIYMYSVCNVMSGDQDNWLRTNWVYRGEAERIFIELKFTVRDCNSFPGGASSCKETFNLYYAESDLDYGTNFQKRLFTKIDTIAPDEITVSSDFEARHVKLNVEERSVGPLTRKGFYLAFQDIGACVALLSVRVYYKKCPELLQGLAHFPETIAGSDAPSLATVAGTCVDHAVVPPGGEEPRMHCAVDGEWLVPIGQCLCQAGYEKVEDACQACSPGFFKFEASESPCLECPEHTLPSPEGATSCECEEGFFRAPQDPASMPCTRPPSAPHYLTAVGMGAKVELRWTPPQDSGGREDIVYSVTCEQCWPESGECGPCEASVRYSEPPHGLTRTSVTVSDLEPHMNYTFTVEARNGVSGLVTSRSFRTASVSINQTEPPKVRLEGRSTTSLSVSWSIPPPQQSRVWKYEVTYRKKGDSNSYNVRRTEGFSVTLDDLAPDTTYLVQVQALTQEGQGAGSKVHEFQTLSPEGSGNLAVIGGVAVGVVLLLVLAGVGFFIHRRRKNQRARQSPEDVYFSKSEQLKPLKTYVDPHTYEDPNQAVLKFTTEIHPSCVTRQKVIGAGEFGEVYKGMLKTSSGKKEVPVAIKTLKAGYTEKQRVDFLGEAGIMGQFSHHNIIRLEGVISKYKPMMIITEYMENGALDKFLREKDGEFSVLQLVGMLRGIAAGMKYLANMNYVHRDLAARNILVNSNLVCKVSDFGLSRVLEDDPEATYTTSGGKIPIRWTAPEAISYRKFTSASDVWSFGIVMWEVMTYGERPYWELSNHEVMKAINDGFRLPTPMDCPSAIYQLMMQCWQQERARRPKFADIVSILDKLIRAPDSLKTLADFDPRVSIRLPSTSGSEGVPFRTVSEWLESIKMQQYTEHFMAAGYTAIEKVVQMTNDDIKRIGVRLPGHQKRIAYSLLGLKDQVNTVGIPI
Assay: Inhibition of recombinant human N-terminal His6-tagged EphA2 (N598 to R890 residues) expressed in baculovirus using poly-EY as substrate after 180 mins by luciferase coupled chemiluminescence assay
Endpoint name: IC50

- Compound: "COc1cc2c(Nc3ccc(Cl)c(Cl)c3)ncnc2cc1OCC1CN(C(=O)c2cc(F)ccc2F)CCO1 (stereo not drawn)"
  Endpoint name: "IC50"
  Observed measurement: "50 to 1000 nM"
- Compound: "COc1cc2c(Nc3ccc(Cl)c(Cl)c3F)ncnc2cc1OC[C@H]1CN2CCOC[C@H]2CO1"
  Endpoint name: "IC50"
  Observed measurement: "50 to 1000 nM"
- Compound: "COc1cc2c(Nc3ccc(Cl)c(Cl)c3)ncnc2cc1OC1C[C@@H]2CN(C)C[C@@H]2C1 (stereo partly drawn)"
  Endpoint name: "IC50"
  Observed measurement: "50 to 1000 nM"

Query :: Sample COc1cc2c(Nc3ccc(Cl)c(Cl)c3)ncnc2cc1OCC1CN2CCOCC2CO1 (stereo not drawn) — what was its IC50?
Result :: 50 to 1000 nM

Query :: What IC50 value was documented for this compound, COc1cc2c(Nc3ccc(Br)c(Cl)c3)ncnc2cc1O[C@H]1CO[C@H]2[C@@H]1OC[C@@H]2N1CCCCC1 ?
Result :: 1000 to 20000 nM

----------
Target: UniProtKB P54760
Assay: Inhibition of recombinant human N-terminal His6-tagged EphB4 kinase domain (E605 to E890 residues) expressed in baculovirus using poly-AEKY as substrate after 150 mins in presence of gamma33P-ATP by liquid scintillation spectrometry
pIC50: −log10 of the molar value.
Endpoint name: pIC50

- Compound: "C=CCCCCCCN1CCOC(COc2cc3ncnc(Nc4ccc(Cl)c(Cl)c4)c3cc2OC)C1 (stereo not given)"
  Observed measurement: "6.00 to 7.30"
- Compound: "CN/C(=N\\C#N)N1CCOC(COc2cc3ncnc(Nc4ccc(Cl)c(C)c4)c3cc2OC)C1 (stereo not given)"
  Observed measurement: "> 7.30"
- Compound: "COc1cc2c(Nc3ccc(Cl)c(Cl)c3)ncnc2cc1OCC1CN(C(C)=O)CCO1 (stereo not given)"
  Observed measurement: "> 7.30"

Query :: Which pIC50 is reported with UniProtKB P54760 for this entry: COc1cc2c(Nc3ccc(Cl)c(Cl)c3)ncnc2cc1OCc1csc(CN2CCOCC2)n1 ?
Result :: 6.00 to 7.30

Query :: Requested read-out pIC50, target or system UniProtKB P54760, entry CCCCCN1CCOC(COc2cc3ncnc(Nc4ccc(Cl)c(Cl)c4)c3cc2OC)C1 (stereo not given)
Result :: 6.00 to 7.30

Query :: Give UniProtKB P54760 pIC50 for COc1cc2c(Nc3ccc(Cl)c(Cl)c3)ncnc2cc1OCC1CN(C(=O)c2c(C)noc2C)CCO1 (stereo not given)
Result :: > 7.30

Query :: Recorded pIC50 for COc1cc2c(Nc3ccc(Cl)c(Cl)c3)ncnc2cc1OCC1CN(CCc2ccccc2)CCO1 (stereo not given) with UniProtKB P54760, please?
Result :: 6.00 to 7.30

Query :: Short answer please: pIC50, UniProtKB P54760, entry CCCCCCN1CCOC(COc2cc3ncnc(Nc4ccc(Cl)c(Cl)c4)c3cc2OC)C1 (stereo not given)
Result :: 6.00 to 7.30

Query :: Query for UniProtKB P54760: what pIC50 does the record show for COc1cc2c(Nc3ccc(F)c(Cl)c3F)ncnc2cc1OC[C@@H]1CN2CCOC[C@H]2CO1 ?
Result :: > 7.30

Query :: Form field: pIC50 recorded for COc1cc2c(Nc3ccc(Cl)c(Cl)c3)ncnc2cc1OCC1CN(CCCOC2CCCCO2)CCCO1 (stereo not given) with UniProtKB P54760 (enter value)
Result :: > 7.30

----------
Each record here notes measured pIC50.
Target: Ephrin type-B receptor 4 (Homo sapiens, UniProt P54760)
Assay: Inhibition of recombinant human N-terminal His6-tagged EphB4 kinase domain (E605 to E890 residues) expressed in baculovirus using poly-AEKY as substrate after 150 mins in presence of gamma33P-ATP by liquid scintillation spectrometry
pIC50: −log10 of the molar value.

Query :: Data request, read-out pIC50, for COc1cc2c(Nc3ccc(Br)c(Cl)c3)ncnc2cc1OC1CCN(C)C1 (stereo unspecified)
Result :: 6.00 to 7.30

Query :: Given the compound COc1cc2c(Nc3ccc(Cl)c(Cl)c3F)ncnc2cc1OC[C@@H]1CN(C)CC(=O)N1 , what is its reported pIC50?
Result :: 6.00 to 7.30

Query :: What pIC50 value was documented for this compound, COc1cc2c(Nc3ccc(Br)c(Cl)c3C)ncnc2cc1OCC1CN(C)CCO1 (stereo unspecified) ?
Result :: 6.00 to 7.30

Query :: Which value of pIC50 has been reported for COc1cc2c(Nc3ccc(Br)c(Cl)c3Cl)ncnc2cc1OCC1CN(C)CCO1 (stereo unspecified) in the records?
Result :: > 7.30

Query :: What does the record list as pIC50 for C#CCN1CCOC(COc2cc3ncnc(Nc4ccc(Cl)c(Cl)c4)c3cc2OC)C1 (stereo unspecified) ?
Result :: > 7.30

Query :: Looking for the measured pIC50 of COc1cc2c(Nc3ccc(Cl)c(Cl)c3)ncnc2cc1OCC1CNCC(C)(C)O1 (stereo unspecified) , can you help?
Result :: 6.00 to 7.30

Query :: Give the measured pIC50 of COc1cc2c(Nc3ccc(Cl)c(Cl)c3)ncnc2cc1OCC1CN(Cc2ccccn2)CCO1 (stereo unspecified) .
Result :: 6.00 to 7.30

Query :: For the compound shown here, COc1cc2c(Nc3ccc(Cl)c(Cl)c3F)ncnc2cc1OC[C@@H]1CN2CCC[C@H]2CO1 , give the reported pIC50.
Result :: > 7.30

Query :: Find the recorded pIC50 belonging to COc1cc2c(Nc3cc(Cl)c(Cl)cc3F)ncnc2cc1OCC1CN(C)CCO1 (stereo unspecified) and report it.
Result :: > 7.30

Query :: Suppose we examine the compound COc1cc2c(Nc3ccc(Cl)c(Cl)c3)ncnc2cc1OCC1CN(S(C)(=O)=O)CCCO1 (stereo unspecified) ; what pIC50 value has been reported?
Result :: > 7.30

Query :: Entry COc1cc2c(Nc3ccc(Br)c(Cl)c3Cl)ncnc2cc1OCC1CN(C)C(C)(C)CO1 (stereo unspecified) has what pIC50?
Result :: > 7.30

Query :: Look up pIC50 for this compound: COCCOc1cc2c(Nc3ccc(Cl)c(Cl)c3)ncnc2cc1OCC1CN(C)CCO1 (stereo unspecified)
Result :: > 7.30

Query :: If you can, please state the reported pIC50 value of CCC(=O)N1CCOC(COc2cc3ncnc(Nc4ccc(Cl)c(Cl)c4)c3cc2OC)C1 (stereo unspecified) .
Result :: > 7.30

----------
Target: Ephrin type-B receptor 4 (Homo sapiens)
Sequence (P54760 whole entry): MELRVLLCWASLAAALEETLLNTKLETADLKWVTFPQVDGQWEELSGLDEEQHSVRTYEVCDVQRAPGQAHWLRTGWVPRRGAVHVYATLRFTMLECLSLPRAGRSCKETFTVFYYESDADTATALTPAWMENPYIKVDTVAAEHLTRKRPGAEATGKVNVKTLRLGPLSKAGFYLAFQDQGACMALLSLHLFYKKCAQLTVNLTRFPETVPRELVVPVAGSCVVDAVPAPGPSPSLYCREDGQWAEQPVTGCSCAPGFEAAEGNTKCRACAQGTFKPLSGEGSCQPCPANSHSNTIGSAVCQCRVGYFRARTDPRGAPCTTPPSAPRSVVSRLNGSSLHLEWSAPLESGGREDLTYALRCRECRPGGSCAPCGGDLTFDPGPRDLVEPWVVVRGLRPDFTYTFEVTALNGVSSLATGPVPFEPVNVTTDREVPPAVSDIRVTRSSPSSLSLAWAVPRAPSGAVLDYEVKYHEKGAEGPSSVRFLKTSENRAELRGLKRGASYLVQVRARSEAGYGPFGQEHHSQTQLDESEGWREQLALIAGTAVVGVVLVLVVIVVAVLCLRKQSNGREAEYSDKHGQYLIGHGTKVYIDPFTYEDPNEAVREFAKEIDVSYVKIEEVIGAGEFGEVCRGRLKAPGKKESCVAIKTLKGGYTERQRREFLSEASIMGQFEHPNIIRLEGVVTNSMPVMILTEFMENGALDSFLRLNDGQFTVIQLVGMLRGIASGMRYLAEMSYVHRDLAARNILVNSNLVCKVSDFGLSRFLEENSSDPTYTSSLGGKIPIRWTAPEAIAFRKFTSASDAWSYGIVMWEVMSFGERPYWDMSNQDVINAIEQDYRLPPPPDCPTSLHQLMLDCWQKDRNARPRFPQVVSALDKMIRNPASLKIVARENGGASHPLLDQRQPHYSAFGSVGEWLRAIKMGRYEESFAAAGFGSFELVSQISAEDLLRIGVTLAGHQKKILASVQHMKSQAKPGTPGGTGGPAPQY
Assay: Inhibition of recombinant human N-terminal His6-tagged EphB4 kinase domain (E605 to E890 residues) expressed in baculovirus using poly-AEKY as substrate after 150 mins in presence of gamma33P-ATP by liquid scintillation spectrometry
Entries and their measured IC50 follow.

Query :: Using the record for COc1cc2c(Nc3ccc(Cl)c(Cl)c3)ncnc2cc1OCC1CN(C(=O)c2cccnc2Cl)CCO1 (stereo not given) , report its IC50.
Result :: < 0.05 µM

Query :: Which IC50 reading was recorded for the compound COc1cc2c(Nc3ccc(Cl)c(Cl)c3)ncnc2cc1OCC1CN(CCC(C)C)CCCO1 (stereo not given) ?
Result :: 0.05 to 1 µM
